assayed_target: T1, activin A (UniProt P08476 311-426)
T1 construct: also called ActA
T1 sequence (looked up): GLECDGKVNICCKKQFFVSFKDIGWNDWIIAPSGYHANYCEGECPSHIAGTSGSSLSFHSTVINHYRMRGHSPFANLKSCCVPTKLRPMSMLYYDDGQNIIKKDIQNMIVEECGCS
assay_name: SPR (Biacore); receptor-Fc captured by anti-hFc antibody, ligand injected
Consider the following binders and their measured kon readings.
Number plus unit, in that order.

binder	measurement_name	result
ActRIIB(R64K 20-134)-hFc (Fc fusion) GRGEAETRECIYYNANWELERTNQSGLERCEGEQDKRLHCYASWKNSSGTIELVKKGCWLDDFNCYDRQECVATEENPQVYFCCCEGNFCNERFTHLPEAGGPEVTYEPPPTAPTGGGTHTCPPCPAPELLGGPSVFLFPPKPKDTLMISRTPEVTCVVVDVSHEDPEVKFNWYVDGVEVHNAKTKPREEQYNSTYRVVSVLTVLHQDWLNGKEYKCKVSNKALPVPIEKTISKAKGQPREPQVYTLPPSREEMTKNQVSLTCLVKGFYPSDIAVEWESNGQPENNYKTTPPVLDSDGSFFLYSKLTVDKSRWQQGNVFSCSVMHEALHNHYTQKSLSLSPGK	kon	6.82e+06 M⁻¹ s⁻¹

Problem: Could you please provide reported kon for ActRIIB(P129S, P130R 20-134)-hFc (Fc fusion) GRGEAETRECIYYNANWELERTNQSGLERCEGEQDKRLHCYASWRNSSGTIELVKKGCWLDDFNCYDRQECVATEENPQVYFCCCEGNFCNERFTHLPEAGGPEVTYEPSRTAPTGGGTHTCPPCPAPELLGGPSVFLFPPKPKDTLMISRTPEVTCVVVDVSHEDPEVKFNWYVDGVEVHNAKTKPREEQYNSTYRVVSVLTVLHQDWLNGKEYKCKVSNKALPVPIEKTISKAKGQPREPQVYTLPPSREEMTKNQVSLTCLVKGFYPSDIAVEWESNGQPENNYKTTPPVLDSDGSFFLYSKLTVDKSRWQQGNVFSCSVMHEALHNHYTQKSLSLSPGK ? Thanks!
Result: 5.02e+06 M⁻¹ s⁻¹
